Value source: BigSolDB 2.1

- test.parameters: in n-butanol, 283.15 K
assay.endpoint: solubility (mole fraction)
In your answer, state the number alone without any accompanying words.

Can you look up the measured solubility (mole fraction) of "CC#C[C@]1(O)CC[C@H]2[C@@H]3CCC4=CC(=O)CCC4=C3[C@@H](c3ccc(N(C)C)cc3)C[C@@]21C" for me? 0.000264

----------
- test.parameters: in methanol, 298.15 K
assay.endpoint: solubility (mole fraction)

Can you look up the measured solubility (mole fraction) of "CC#C[C@]1(O)CC[C@H]2[C@@H]3CCC4=CC(=O)CCC4=C3[C@@H](c3ccc(N(C)C)cc3)C[C@@]21C" for me? 0.00164
